What GI50 was measured for each of the following?
Assay: Cytotoxicity against human UACC257 cells assessed as growth inhibition
Type: functional
Conditions: UACC-257
Answers are plain numbers, in µM.

>>> number("Cc1cc(/C=C2\\CCc3c(n(C)c4ccccc34)C2=O)cc(C)c1O")
5.83
>>> number("Cc1cc(/C=C2\\Cc3c([nH]c4ccccc34)C2=O)cc(C)c1O")
26.1
>>> number("COc1cc2c(c(N)c1OC)C(=O)/C(=C\\c1cc(C)c(O)c(C)c1)C2")
100

Form field GI50, entry Cc1cc(/C=C2\CCc3c([nH]c4ccccc34)C2=O)cc(C)c1O : 0.37

====

System: KM12
Assay: Cytotoxicity against human KM12 cells assessed as growth inhibition
Assay type: functional
What GI50 was measured for each of the following?
Answers are plain numbers, in nM.

Recorded results for 3 molecules are shown here.
>>> number("COc1cc2c(c(N)c1OC)C(=O)/C(=C\\c1cc(C)c(O)c(C)c1)C2")
10
>>> number("Cc1cc(/C=C2\\CCc3c(n(C)c4ccccc34)C2=O)cc(C)c1O")
450
>>> number("Cc1cc(/C=C2\\Cc3c([nH]c4ccccc34)C2=O)cc(C)c1O")
460

Continue with the next molecule.
Form field GI50, entry Cc1cc(/C=C2\CCc3c([nH]c4ccccc34)C2=O)cc(C)c1O : 390

====

System: K562
Experiment: Cytotoxicity against human K562 cells assessed as growth inhibition
Type: functional
property_label: GI50 (nM)
One number for each entry, in nM.

>>> number("Cc1cc(/C=C2\\Cc3c([nH]c4ccccc34)C2=O)cc(C)c1O")
330
>>> number("COc1cc2c(c(N)c1OC)C(=O)/C(=C\\c1cc(C)c(O)c(C)c1)C2")
10
>>> number("Cc1cc(/C=C2\\CCc3c(n(C)c4ccccc34)C2=O)cc(C)c1O")
330

Form field GI50, entry Cc1cc(/C=C2\CCc3c([nH]c4ccccc34)C2=O)cc(C)c1O : 320

====

System: SK-OV-3
Assay: Cytotoxicity against human SKOV3 cells assessed as growth inhibition
Assay type: functional
property_label: GI50 (nM)
One number for each entry, in nM.

Recorded results for 3 compounds are shown here.
>>> number("Cc1cc(/C=C2\\CCc3c(n(C)c4ccccc34)C2=O)cc(C)c1O")
1520
>>> number("Cc1cc(/C=C2\\Cc3c([nH]c4ccccc34)C2=O)cc(C)c1O")
730
>>> number("COc1cc2c(c(N)c1OC)C(=O)/C(=C\\c1cc(C)c(O)c(C)c1)C2 [INDANOCINE]")
10

Continue with the next compound.
Form field GI50, entry Cc1cc(/C=C2\CCc3c([nH]c4ccccc34)C2=O)cc(C)c1O : 470

====

Test system: LOX IMVI
Assay: Cytotoxicity against human LOXIMVI cells assessed as growth inhibition
Type: functional
property_label: GI50 (nM)
One number for each entry, in nM.

Recorded results for 2 molecules are shown here.
>>> number("Cc1cc(/C=C2\\CCc3c([nH]c4ccccc34)C2=O)cc(C)c1O")
760
>>> number("Cc1cc(/C=C2\\CCc3c(n(C)c4ccccc34)C2=O)cc(C)c1O")
700

Could I get GI50 for every one of these entries?
1. COc1cc2c(c(N)c1OC)C(=O)/C(=C\c1cc(C)c(O)c(C)c1)C2 [INDANOCINE]
2. Cc1cc(/C=C2\Cc3c([nH]c4ccccc34)C2=O)cc(C)c1O

Response:
[10, 690]
